ASSAY_INFO: Ratio of drug level in brain to plasma in 129/sve mouse at 30 mg/kg, po administered as single dose by LC-MS/MS analysis
Format: ADME, organism-based
Set-up: dose 30 mg/kg, route oral
APPLIED_CONDITIONS: read-out: BPR
MEASURED_PARAMETER: Kp

A: NC(=O)[C@@H](CCC(F)(F)F)N(Cc1ccc(-c2ncon2)cc1F)S(=O)(=O)c1ccc(Cl)cc1 [AVAGACESTAT]
B: NC(=O)[C@@H](CCC(F)(F)F)N(CC12CC(c3ncon3)(C1)C2)S(=O)(=O)c1ccc(Cl)cc1
Task: Given the two records A and B , choose the one whose Kp value is lower. Bench note: the answer is the label of the chosen record.
Result: B
(B: 0.84, A: 1.43)

* * *

ASSAY_INFO: Volume of distribution at steady state in Sprague-Dawley rat at 1 mg/kg, iv
Assay type: ADME, organism-based
Parameters: dose 1 mg/kg, route intravenous
APPLIED_CONDITIONS: in vivo, read-out: Vdss
MEASURED_PARAMETER: Vd (L/kg)
Your answer is read as L/kg, so omit the unit and give the number.

Task: Which measured Vd value corresponds to NC(=O)[C@@H](CCC(F)(F)F)N(CC12CC(c3ncon3)(C1)C2)S(=O)(=O)c1ccc(Cl)cc1 ?
Result: 2.12

* * *

ASSAY_INFO: Thermodynamic solubility of the compound at pH 7.4
Format: physicochemical
APPLIED_CONDITIONS: buffer, read-out: Therm_solubility
MEASURED_PARAMETER: solubility thermodynamic (µM)

A: NC(=O)[C@@H](CCC(F)(F)F)N(CC12CC(c3ncon3)(C1)C2)S(=O)(=O)c1ccc(Cl)cc1
B: NC(=O)[C@@H](CCC(F)(F)F)N(Cc1ccc(-c2ncon2)cc1F)S(=O)(=O)c1ccc(Cl)cc1
Task: Lab note: check whether A or B shows the higher recorded solubility thermodynamic. Bench note: the answer is the label of the chosen record.
Result: A
(A: 29.4 µM, B: 0.9 µM)

* * *

ASSAY_INFO: Tmax in Sprague-Dawley rat at 5 mg/kg, po
Type: ADME, organism-based
Parameters: dose 5 mg/kg, route oral
APPLIED_CONDITIONS: in vivo
MEASURED_PARAMETER: Tmax (h)
Your answer is read as h, so omit the unit and give the number.

Task: Which measured Tmax value corresponds to NC(=O)[C@@H](CCC(F)(F)F)N(CC12CC(c3ncon3)(C1)C2)S(=O)(=O)c1ccc(Cl)cc1 ?
Result: 2

* * *

ASSAY_INFO: Apparent permeability from apical to basal side of dog RRCK cells
Assay type: ADME, cell-based, Canis lupus familiaris, MDCKII-LE
APPLIED_CONDITIONS: MDCK
MEASURED_PARAMETER: Papp A→B (×10⁻⁶ cm/s)

MOLECULE: N#C[C@H]1CC[C@H](CN([C@H](CCC(F)(F)F)C(N)=O)S(=O)(=O)c2ccc(Cl)cc2)CC1 (stereo in doubt; 21)
READING_UNIT: ×10⁻⁶ cm/s
Papp A→B: 15.7
--
MOLECULE: N#C[C@H]1C[C@@H](CN([C@H](CCC(F)(F)F)C(N)=O)S(=O)(=O)c2ccc(Cl)cc2)C1
READING_UNIT: ×10⁻⁶ cm/s
Papp A→B: 24.1
--
MOLECULE: C[C@]1(C#N)C[C@H](CN([C@H](CCC(F)(F)F)C(N)=O)S(=O)(=O)c2ccc(Cl)cc2)C1
READING_UNIT: ×10⁻⁶ cm/s
Papp A→B: 21.8

* * *

ASSAY_INFO: Cmax in Sprague-Dawley rat at 5 mg/kg, po
Assay type: ADME, organism-based
Design: dose 5 mg/kg, route oral
APPLIED_CONDITIONS: in vivo
MEASURED_PARAMETER: Cmax (nM)
Your answer is read as nM, so omit the unit and give the number.

Task: Which measured Cmax value corresponds to NC(=O)[C@@H](CCC(F)(F)F)N(CC12CC(c3ncon3)(C1)C2)S(=O)(=O)c1ccc(Cl)cc1 ?
Result: 1860

* * *

SYSTEM: Gamma-secretase
ASSAY_INFO: Inhibition of gamma secretase-mediated amyloid beta42 production in human H4 cells expressing human wild-type APP
pIC50: −log10 of the molar value.
MEASURED_PARAMETER: pIC50

COMPOUND_STRING: NC(=O)[C@@H](CCC(F)(F)F)N(C[C@H]1C[C@@H](c2ncon2)C1)S(=O)(=O)c1ccc(Cl)cc1
MEASURED_PARAMETER: pIC50
OBSERVED_RESULT: 7.91

I: N#C[C@H]1C[C@@H]1CN([C@H](CCC(F)(F)F)C(N)=O)S(=O)(=O)c1ccc(Cl)cc1
II: N#CCCCCN([C@H](CCC(F)(F)F)C(N)=O)S(=O)(=O)c1ccc(Cl)cc1
III: N#CC12CC(CN([C@H](CCC(F)(F)F)C(N)=O)S(=O)(=O)c3ccc(Cl)cc3)(C1)C2
Task: Sort (3 molecules) by pIC50: min first. List each label, following the requested order.
Result: II, I, III

* * *

Organism: Homo sapiens
ASSAY_INFO: Selectivity for human gamma-seretase over notch signalling protein
MEASURED_PARAMETER: Selectivity Index

a: NC(=O)[C@@H](CCC(F)(F)F)N(CC12CC(c3ncon3)(C1)C2)S(=O)(=O)c1ccc(Cl)cc1
b: N#Cc1ccc(CN([C@H](CCC(F)(F)F)C(N)=O)S(=O)(=O)c2ccc(Cl)cc2)cc1
Task: Given the two records a and b , choose the one whose Selectivity Index value is lower. Bench note: the answer is the label of the chosen record.
Result: a

* * *

ASSAY_INFO: Cmax in 129/sve mouse cerebrospinal fluid at 30 mg/kg, po administered as single dose by LC-MS/MS analysis
Assay type: ADME, organism-based
Parameters: dose 30 mg/kg, route oral
MEASURED_PARAMETER: Cmax (nM)

a: NC(=O)[C@@H](CCC(F)(F)F)N(CC12CC(c3ncon3)(C1)C2)S(=O)(=O)c1ccc(Cl)cc1
b: NC(=O)[C@@H](CCC(F)(F)F)N(Cc1ccc(-c2ncon2)cc1F)S(=O)(=O)c1ccc(Cl)cc1
Task: Lab note: check whether a or b shows the higher recorded Cmax. Bench note: the answer is the label of the chosen record.
Result: a
(a: 53 nM, b: 12 nM)

* * *

ASSAY_INFO: Plasma clearance in Sprague-Dawley rat at 1 mg/kg, iv
Type: ADME, organism-based
Parameters: dose 1 mg/kg, route intravenous
MEASURED_PARAMETER: clearance (mL/min/kg)
Your answer is read as mL/min/kg, so omit the unit and give the number.

Task: Which measured clearance value corresponds to NC(=O)[C@@H](CCC(F)(F)F)N(CC12CC(c3ncon3)(C1)C2)S(=O)(=O)c1ccc(Cl)cc1 ?
Result: 13.3

* * *

ASSAY_INFO: Cmax in 129/sve mouse brain at 30 mg/kg, po administered as single dose by LC-MS/MS analysis
Type: ADME, organism-based
Design: dose 30 mg/kg, route oral
MEASURED_PARAMETER: Cmax (µM)

I: NC(=O)[C@@H](CCC(F)(F)F)N(CC12CC(c3ncon3)(C1)C2)S(=O)(=O)c1ccc(Cl)cc1
II: NC(=O)[C@@H](CCC(F)(F)F)N(Cc1ccc(-c2ncon2)cc1F)S(=O)(=O)c1ccc(Cl)cc1 [AVAGACESTAT]
Task: Given the two records I and II , choose the one whose Cmax value is lower. Bench note: the answer is the label of the chosen record.
Result: II

* * *

ASSAY_INFO: Kinetic solubility of the solubility of the compound at pH 6.5
Assay type: physicochemical
APPLIED_CONDITIONS: buffer, read-out: Kinetic_solubility
MEASURED_PARAMETER: solubility kinetic (µM)

COMPOUND_STRING: NC(=O)[C@@H](CCC(F)(F)F)N(CC12CC(c3ncon3)(C1)C2)S(=O)(=O)c1ccc(Cl)cc1
solubility kinetic / µM: 216

A: N#CC12CC(CN([C@H](CCC(F)(F)F)C(N)=O)S(=O)(=O)c3ccc(Cl)cc3)(C1)C2
B: NC(=O)[C@@H](CCC(F)(F)F)N(Cc1ccc(-c2ncon2)cc1F)S(=O)(=O)c1ccc(Cl)cc1
C: N#Cc1ccc(CN([C@H](CCC(F)(F)F)C(N)=O)S(=O)(=O)c2ccc(Cl)cc2)cc1
D: N#Cc1ccc(CN([C@H](CCC(F)(F)F)C(N)=O)S(=O)(=O)c2ccc(Cl)cc2)c(F)c1
Task: Arrange by solubility kinetic, high to low. List each label, following the requested order.
Result: A, C, D, B

* * *

ASSAY_INFO: Fraction unbound in 129/sve mouse plasma at 30 mg/kg, po administered as single dose
Type: ADME, organism-based
Design: dose 30 mg/kg, route oral
MEASURED_PARAMETER: fraction unbound

I: NC(=O)[C@@H](CCC(F)(F)F)N(Cc1ccc(-c2ncon2)cc1F)S(=O)(=O)c1ccc(Cl)cc1 [AVAGACESTAT]
II: NC(=O)[C@@H](CCC(F)(F)F)N(CC12CC(c3ncon3)(C1)C2)S(=O)(=O)c1ccc(Cl)cc1
Task: Lab note: check whether I or II shows the higher recorded fraction unbound. Bench note: the answer is the label of the chosen record.
Result: II
(II: 0.0354, I: 0.01)
